The origin of these recorded values is the supplement of paper PMC10567573.

B1: DYRK1B (parent)
chain: YQGPGTRRLQEVLGVQTGGPGGRR

Variants of: B1
experiment notes: protein stability index of a GFP-peptide fusion (GPS, HEK-293T) (PSI 1-6); higher = more stable;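 also: lentivirally expressed fusions sorted by FACS into six bins by GFP to DsRed ratio, PSI derived from sequencing read proportions per bin multiplied by bin number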
stated conditions: c terminus: a fixed tail appended
# protein stability index annotations
Please state the value as a number alone, without comment.

Please review the entries below; each comes with its answer.
YWGPGTRRLQEVLGVQTGGPGGRR [Q2W]: 2.95
YQGPGTRRLQEVLAVQTGGPGGRR [G14A]: 2.92
YQGPGTRRLQEVLGVQTAGPGGRR [G18A]: 3
YQGPGTRRLREVLGVQTGGPGGRR [Q10R]: 2.91

Read the next record carefully.
Would you kindly share the measured protein stability index for YQGPGTRRLQYVLGVQTGGPGGRR [E11Y] ? 2.97
